Target: Cytochrome P450 2C9 (Homo sapiens) (UniProt P11712)
Sequence (P11712 whole entry, looked up): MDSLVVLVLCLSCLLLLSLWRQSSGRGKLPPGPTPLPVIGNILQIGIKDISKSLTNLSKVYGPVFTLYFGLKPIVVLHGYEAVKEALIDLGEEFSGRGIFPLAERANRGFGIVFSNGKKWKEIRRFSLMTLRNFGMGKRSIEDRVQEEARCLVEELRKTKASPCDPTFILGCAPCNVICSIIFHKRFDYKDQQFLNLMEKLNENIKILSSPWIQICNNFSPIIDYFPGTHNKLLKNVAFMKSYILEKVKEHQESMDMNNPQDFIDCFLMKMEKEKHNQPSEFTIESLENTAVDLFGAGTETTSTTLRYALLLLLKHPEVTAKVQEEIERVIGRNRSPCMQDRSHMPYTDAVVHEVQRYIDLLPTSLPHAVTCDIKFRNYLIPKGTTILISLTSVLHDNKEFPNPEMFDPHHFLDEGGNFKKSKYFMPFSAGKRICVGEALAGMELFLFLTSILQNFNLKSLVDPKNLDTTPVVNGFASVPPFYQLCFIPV
Experiment: qHTS Assay for Inhibitors and Substrates of Cytochrome P450 2C9 (AID 883); note: nearly all actives have a fitted effect of over 60% in size
Settings: recombinant CYP2C9, luciferin-H luminescence, 60 min; series mostly up to 11.4 µM
Records with an inconclusive call do not appear. Active and inactive are the calls of the source. Calls come from the whole dose curve; as a rule, active = well fitted inhibition curve with a large enough effect; inconclusive = small, poorly fitted or top-dose-only effect; inactive = no such curve, though single readings can be large or run the other way.
The categories you may choose from are YES for active, NO for inactive

INPUT: Answer briefly: the call reported for `O=C1c2ccccc2N[C@H](c2cc(Cl)cc(Cl)c2O)N1CCc1ccccn1` in this assay.
OUTPUT: YES

INPUT: What would you report for `Cc1cc(C)cc(C(=N)c2ccccc2Cc2cccc3ccccc23)c1` ?
OUTPUT: NO

INPUT: What would you report for `C[C@H]1C[C@@H]2[C@H]3CCC4=CC(=O)C=C[C@@]4(C)[C@]3(Cl)[C@@H](Cl)C[C@]2(C)[C@]1(O)C(=O)COP(=O)(O)O` ?
OUTPUT: NO

INPUT: What would you report for `COc1ccc(C(=O)CCN(C)C)c2ccccc12` ?
OUTPUT: YES

INPUT: What would you report for `Nc1nc(Sc2ccc([N+](=O)[O-])c3nonc23)c2[nH]cnc2n1` ?
OUTPUT: YES

INPUT: What would you report for `O=C1c2ccccc2C(=O)c2c1ccc(N1C(=O)c3ccccc3C1=O)c2-c1c(N2C(=O)c3ccccc3C2=O)ccc2c1C(=O)c1ccccc1C2=O` ?
OUTPUT: NO

INPUT: What would you report for `O=C(O)c1cscc1Cc1cccs1` ?
OUTPUT: NO

INPUT: What would you report for `N[C@H](Cc1ccc(O)c(I)c1)C(=O)O` ?
OUTPUT: NO

INPUT: What would you report for `Oc1ccc2ccccc2c1Cc1c(O)ccc2ccccc12` ?
OUTPUT: YES

INPUT: What would you report for `O=S(=O)(O)c1cc(O)c2c(N=Cc3ccccc3O)cc(S(=O)(=O)O)cc2c1` ?
OUTPUT: YES

---

Assay: Cell Viability - LYMP2-010 (AID 981);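 note: cells exposed to compound for 24 hours at 37 °C; nearly all actives have a fitted effect of over 55% in size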
Conditions: LYMP2-010 lymphoblastoid cell viability, qHTS; series mostly up to 92.2 µM
Records with an inconclusive call do not appear. Active and inactive are the calls of the source. The call rests on the fitted dose curve; in most records, active means well fitted cell-killing curve with a large enough effect; inconclusive means small, poorly fitted or top-dose-only effect; inactive means flat fitted curve, though single readings scatter.
The categories you may choose from are Y = active, N = inactive

These solved cases illustrate the format of a correct answer.
• c1ccc(CSCc2ccccc2)cc1 = N
• Cc1cccnc1 = N
• CCCCC(CC)COC(=O)COc1ccc(Cl)cc1Cl (configuration not stated) = N
• c1ccc(Nc2cccc3ccccc23)cc1 = N

INPUT: Answer briefly: the call reported for `C/C=C/C=C/C=O` in this assay.
OUTPUT: Y

INPUT: What would you report for `Oc1cc(Cl)cc(Cl)c1Cl` ?
OUTPUT: N

INPUT: What would you report for `CCNC(=S)NCC` ?
OUTPUT: N

INPUT: What would you report for `Oc1ccc2c(c1)OCO2` ?
OUTPUT: N

INPUT: What would you report for `Nc1cc([N+](=O)[O-])ccc1O` ?
OUTPUT: N

INPUT: What would you report for `CC(C)COC(=O)COc1cc(Cl)c(Cl)cc1Cl` ?
OUTPUT: N

INPUT: What would you report for `c1ccncc1` ?
OUTPUT: N

INPUT: What would you report for `C=CC(=O)OCCCCCCOC(=O)C=C` ?
OUTPUT: Y

INPUT: What would you report for C=CC(C)(O)CCCC(C)CCCC(C)CCCC(C)C (configuration not stated) ?
OUTPUT: N

INPUT: What would you report for `CC1=C(/C=C/C(C)=C/C=C/C(C)=C/C=O)C(C)(C)CCC1` ?
OUTPUT: Y

INPUT: What would you report for `Cc1ccc(S(N)(=O)=O)cc1` ?
OUTPUT: N

INPUT: What would you report for `O=[N+]([O-])c1ccccc1Nc1ccccc1` ?
OUTPUT: N

INPUT: What would you report for `c1ccc(COCc2ccccc2)cc1` ?
OUTPUT: N

INPUT: What would you report for `CC(C)S` ?
OUTPUT: N

INPUT: What would you report for `Cc1cc(=O)oc2cc(O)cc(O)c12` ?
OUTPUT: N

---

Assay: Cell Viability - LYMP2-014 (AID 983);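 note: cells exposed to compound for 24 h at 37 °C; nearly all actives have a fitted effect of over 50% in size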
Conditions: LYMP2-014 lymphoblastoid cells, viability qHTS; series mostly up to 92.2 µM
Records with an inconclusive call do not appear. Activity calls are given as the source filed them. Calls follow the shape of the dose curve; as a rule, active = well fitted cell-killing curve with a large enough effect; inconclusive = small, poorly fitted or top-dose-only effect; inactive = flat fitted curve, though single readings scatter.
The categories you may choose from are T for active, F for inactive

These solved cases illustrate the format of a correct answer.
• O=[N+]([O-])c1cc(N(CCO)CCO)ccc1NCCO = F
• O=C(Cl)c1ccc([N+](=O)[O-])cc1 = F
• C=CC(=O)OCCCCCCOC(=O)C=C = T

INPUT: Answer briefly: the call reported for `Brc1cc(Oc2cc(Br)c(Br)c(Br)c2Br)c(Br)c(Br)c1Br` in this assay.
OUTPUT: F

INPUT: What would you report for `O=C1OC(=O)c2ccccc21` ?
OUTPUT: F

INPUT: What would you report for `CC(/C=C/C=C(C)/C=C/C(=O)O)=C\C=C\C=C(C)\C=C\C=C(C)\C=C\C(=O)O` ?
OUTPUT: F

INPUT: What would you report for `CN(C)c1ccc(Cc2ccc(N(C)C)cc2)cc1` ?
OUTPUT: F

INPUT: What would you report for `C=CC(=O)CC` ?
OUTPUT: F

INPUT: What would you report for `CCCCCCc1ccc(-c2ccc(C#N)cc2)cc1` ?
OUTPUT: F

INPUT: What would you report for `NC(=O)Nc1nc2ccccc2[nH]1` ?
OUTPUT: F

INPUT: What would you report for `N=C1C=CC(=C(c2ccc(N)cc2)c2ccc(N)cc2)C=C1` ?
OUTPUT: T

INPUT: What would you report for `CCOc1ccc2nc(N)sc2c1` ?
OUTPUT: F

INPUT: What would you report for `Cc1cc2nc(N)sc2cc1C` ?
OUTPUT: F

INPUT: What would you report for `C/C(Cl)=C/CCl` ?
OUTPUT: F

INPUT: What would you report for `Nc1ccc(-c2ccc(N)c(O)c2)cc1O` ?
OUTPUT: F

---

Molecular target: Cytochrome P450 1A2 (Homo sapiens) (UniProt P05177)
Sequence (P05177 whole entry, looked up): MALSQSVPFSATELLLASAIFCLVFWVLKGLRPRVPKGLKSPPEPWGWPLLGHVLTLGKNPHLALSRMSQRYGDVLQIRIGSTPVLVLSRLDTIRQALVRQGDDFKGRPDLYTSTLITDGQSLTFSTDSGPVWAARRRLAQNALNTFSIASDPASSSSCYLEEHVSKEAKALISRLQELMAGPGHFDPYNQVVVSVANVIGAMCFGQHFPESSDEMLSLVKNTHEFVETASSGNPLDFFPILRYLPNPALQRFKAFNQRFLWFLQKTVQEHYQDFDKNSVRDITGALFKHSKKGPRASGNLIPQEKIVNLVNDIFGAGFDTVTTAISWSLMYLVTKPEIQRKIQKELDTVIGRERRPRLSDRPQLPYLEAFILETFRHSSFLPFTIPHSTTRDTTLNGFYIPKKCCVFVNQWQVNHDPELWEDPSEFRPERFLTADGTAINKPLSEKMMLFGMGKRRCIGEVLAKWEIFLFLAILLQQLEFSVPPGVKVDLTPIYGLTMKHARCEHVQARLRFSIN
Assay: p450-cyp1a2 (AID 410);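 note: -100% = full effect of reference inhibitor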
Settings: recombinant CYP1A2, luciferin-ME demethylation, luminescence; series mostly up to 11.4 µM
Records with an inconclusive call do not appear. Active and inactive are the calls of the source. Calls follow the shape of the full dose curve.
Assignment: determine reported activity change, negative = inhibition for the given compounds.

Example entries and their recorded answers appear below.
* NC(N)=N/N=C\c1ccc(C2CCNCC2)cc1 | -12% [at 2.29 µM] (inactive)
* CC1(C)N=C(N)N=C(N)N1c1cccc(CSc2ccccc2)c1 | -17.2% [at 2.29 µM] (inactive)
* NS(=O)(=O)c1ccc(NCc2nc3ccccc3[nH]2)cc1 | -18.8% [at 2.29 µM] (inactive)
* CN(C)CCCn1c2ccccc2c2cnccc21 | -20% [at 2.29 µM] (inactive)
* C/C(=N/NC1=NCCN1)c1cn(C2=NCCN2)nc1C | -13.9% [at 2.29 µM] (inactive)

Please give activity change, negative = inhibition for each item listed below.
1. C/C(=N\[N+](C)(C)C)c1ccc(C)c(C)c1
2. O=C(O)c1cc(-c2ccc(-c3ccc(-c4cc(C(=O)O)c5cc(Cl)ccc5n4)cc3)cc2)nc2ccc(Cl)cc12

OUTPUT:
1. -16.9% [at 2.29 µM] (inactive)
2. -18.2% [at 2.29 µM] (inactive)

---

Test: qHTS assay for small molecule antagonists of peroxisome proliferator-activated receptor delta signaling (AID 588535);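 note: cells co-treated with a PPAR-delta agonist as stimulator during compound exposure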
Details: HEK293T PPARd-UAS-bla, beta-lactamase FRET ratio, 18 h; 460 nm channel
Results filed as inconclusive are left out.
MEASURED PROPERTY: max response (%)
Give bare numbers, in %.

Example entries and their recorded answers appear below.
- C=C(C#N)C(=O)OCC: -32.1
- c1cc2c3c(c1)ccc1cccc(c13)C2: 4.88
- c1ccc2ncccc2c1: 41.8
- O=[N+]([O-])c1cc(Cl)c(Cl)c(Cl)c1Cl: 8.11
- O=C1OC(=O)c2ccccc21: -31.3
- CCCCCCCCC1CO1 (stereo not drawn): -10.9
- COc1ccc(C)cc1N: 4.23

Consider the additional compound presented here.
INPUT: Which max response is listed for `c1ccc(SCCSc2ccccc2)cc1` ?
OUTPUT: 21.4

---

Assignment: determine reported Potency for the given compounds.
Target: Glucocorticoid receptor (Homo sapiens)
Assay: GR-EFC Redistribution (AID 451); note: potency is the fitted concentration of half-maximal effect
Settings: CHO-K1 GR-EFC translocation, beta-gal luminescence, 2 h
Active and inactive are the calls of the source. Calls follow the shape of the full dose curve.

Example entries and their recorded answers appear below.
* CCN(Cc1cc(Cl)cc(C)c1O)Cc1c(O)ccc2ccccc12 | > 9.22 µM (inactive)
* O=C(O)c1ccc(OCc2ccccc2)c(Cl)c1 | > 9.22 µM (inactive)
* N#CCCn1c(=O)c(-c2ccc(F)cc2)nc2cnc(Oc3ccccc3)nc21 | > 46 µM (inactive)
* O=C(O)CNC(=O)[C@H]1NC(C(F)(F)F)(C(F)(F)F)OC1(C(F)(F)F)C(F)(F)F | > 9.22 µM (inactive)
* NC(N)=N/N=C(\c1ccc(Cl)cc1)C1CC1 | > 9.22 µM (inactive)

Please give Potency for each item listed below.
1. CCOC(=O)Nc1nc(-c2ccccc2)c(C)s1
2. COc1ccc(Br)c2c1C[C@H](C(=O)O)CC2
3. CC(C)CO[C@H](c1ccc2c(c1)OCO2)[C@H](C)Br
4. Cc1ccc(N=Nc2c(O)c3ccccc3[nH]c2=O)c(S(=O)(=O)N(C)C)c1
5. COc1ccc(C(=O)N2CCC3(CCCN(C(=O)Nc4cccc(F)c4)C3)CC2)cc1

OUTPUT:
> 9.22 µM (inactive)
> 9.22 µM (inactive)
> 9.22 µM (inactive)
> 9.22 µM (inactive)
> 46 µM (inactive)

INPUT: Which Potency is listed for `COc1ccc(C(=O)N2CCC3(CC2)CCN(c2ccccn2)CC3)cc1` ?
OUTPUT: > 46 µM (inactive)
